target: SARS-CoV-2 RdRp (Severe acute respiratory syndrome coronavirus 2, UniProt P0DTD1)
measurement-label: IC50 (µM)

molecule	reported-measurement
Oc1cc(O)c2c(c1)OC(c1ccc(O)c(O)c1)C(OC1(c3ccc(O)c(O)c3)Oc3cc(O)cc(O)c3C(O)C1O)C2 (stereo not shown)	21
